Listing: Kd of selected compounds
# measurement target: IgG receptor FcRn large subunit p51 (Homo sapiens)
# Sequence (P55899 whole entry): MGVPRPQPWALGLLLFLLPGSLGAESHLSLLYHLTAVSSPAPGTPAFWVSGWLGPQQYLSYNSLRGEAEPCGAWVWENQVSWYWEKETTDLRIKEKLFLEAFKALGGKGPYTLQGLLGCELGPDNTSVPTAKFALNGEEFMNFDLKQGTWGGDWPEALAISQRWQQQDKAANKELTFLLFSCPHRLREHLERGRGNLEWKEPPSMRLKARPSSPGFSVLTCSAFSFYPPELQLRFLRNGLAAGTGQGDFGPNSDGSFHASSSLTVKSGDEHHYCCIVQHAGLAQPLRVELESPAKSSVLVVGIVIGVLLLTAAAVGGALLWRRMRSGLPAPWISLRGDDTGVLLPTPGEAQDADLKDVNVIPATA
# assay overview: Binding affinity to human FcRn at pH 6 by surface plasmon resonance assay
Bridge positions count the residues as written; N and C are the ends. Peptide text beside a SMILES is read from it.
// return numeric value only (unit: nM, not printed)

# compound, Kd / nM
data = [
    ("CC(C)C[C@H](NC(=O)[C@H](Cc1ccc(O)cc1)NC(=O)[C@@H]1CSSC[C@H](NC(=O)[C@H](Cc2ccccc2)NC(=O)[C@H](CO)NC(=O)[C@@H](N)CC(N)=O)C(=O)N[C@@H](CCCN=C(N)N)C(=O)NCC(=O)N[C@@H](CCCN=C(N)N)C(=O)N2CCC[C@H]2C(=O)NCC(=O)N[C@@H](Cc2cnc[nH]2)C(=O)N[C@@H](Cc2ccccc2)C(=O)NCC(=O)NCC(=O)N1)C(=O)N[C@@H](Cc1ccccc1)C(=O)O (H-NSFCRGRPGHFGGCYLF-OH; disulfide 4-14)", 9400),
    ("CC(C)C[C@H](NC(=O)CNC(=O)CNC(=O)[C@H](Cc1ccccc1)NC(=O)[C@H](Cc1cnc[nH]1)NC(=O)CNC(=O)[C@@H](NC(=O)[C@@H](NC(=O)[C@H](Cc1ccccc1)NC(=O)[C@H](CCCN=C(N)N)NC(=O)[C@@H](N)CCC(N)=O)C(C)(C)S)[C@@H](C)O)C(=O)N[C@@H](Cc1ccc(O)cc1)C(=O)N1CCC[C@H]1C(=O)N[C@H](C(=O)N[C@@H](CC(N)=O)C(=O)NCC(=O)N1CCC[C@H]1C(=O)O)C(C)(C)S", 370),
    ("CC(C)C[C@H](NC(=O)CNC(=O)CNC(=O)[C@H](Cc1ccccc1)NC(=O)[C@H](Cc1cnc[nH]1)NC(=O)CNC(=O)[C@@H](NC(=O)[C@@H](N)CS)[C@@H](C)O)C(=O)N[C@@H](Cc1ccc(O)cc1)C(=O)N1CCC[C@H]1C(=O)N[C@@H](CS)C(=O)O (H-CTGHFGGLYPC-OH)", 20000),
    ("CC(C)C[C@H](NC(=O)CN1CC[C@@H](NC(=O)[C@H](Cc2ccccc2)NC(=O)[C@H](Cc2cnc[nH]2)NC(=O)CNC(=O)[C@@H](NC(=O)[C@@H](NC(=O)[C@H](Cc2ccccc2)NC(=O)[C@@H](N)CCCN=C(N)N)C(C)(C)S)[C@@H](C)O)C1=O)C(=O)N[C@@H](Cc1ccc(O)cc1)C(=O)N1CCC[C@H]1C(=O)N[C@@H](CS)C(=O)O", 280),
    ("CC(C)C[C@H](NC(=O)CNC(=O)[C@@H](Cc1ccccc1)NC(=O)[C@H](Cc1ccccc1)NC(=O)[C@H](Cc1cnc[nH]1)NC(=O)CNC(=O)[C@@H](NC(=O)[C@@H](NC(=O)[C@H](Cc1ccccc1)NC(=O)[C@H](CCCNC(=N)N)NC(=O)[C@@H](N)CCC(N)=O)C(C)(C)S)[C@@H](C)O)C(=O)N[C@@H](Cc1ccc(O)cc1)C(=O)N1CCC[C@H]1C(=O)N[C@@H](CS)C(=O)N[C@@H](CC(N)=O)C(=O)NCC(=O)N1CCC[C@H]1C(=O)O", 510),
    ("CC(C)C[C@H](NC(=O)CNC(=O)CNC(=O)[C@H](Cc1ccccc1)NC(=O)[C@H](Cc1cnc[nH]1)NC(=O)CNC(=O)[C@@H](NC(=O)[C@H](CS)NC(=O)[C@H](Cc1ccccc1)NC(=O)[C@H](CCCN=C(N)N)NC(=O)[C@@H](N)CCC(N)=O)[C@@H](C)O)C(=O)N[C@@H](Cc1ccc(O)cc1)C(=O)N1CCC[C@H]1C(=O)N[C@@H](CS)C(=O)N[C@@H](C)C(=O)NCC(=O)N1CCC[C@H]1C(=O)O", 8000),
]

Prompt line: Quick one: give measured Kd for CC(C)C[C@H](NC(=O)[C@H]1CSC2C[C@@H](NC(=O)[C@H](Cc3ccccc3)NC(=O)[C@H](Cc3cnc[nH]3)NC(=O)CNC(=O)[C@@H](NC(=O)[C@H](NC(=O)[C@H](Cc3ccccc3)NC(=O)[C@@H](N)CCCNC(=N)N)C(C)(C)S)[C@@H](C)O)C(=O)N21)C(=O)N[C@@H](Cc1ccc(O)cc1)C(=O)N1CCC[C@H]1C(=O)N[C@@H](CS)C(=O)O (stereo not given in full)
Response line: 990

Prompt line: Quick one: give measured Kd for "CC(C)C[C@H](NC(=O)CNC(=O)CNC(=O)[C@H](Cc1ccccc1)NC(=O)[C@H](Cc1cnc[nH]1)NC(=O)CNC(=O)[C@@H](NC(=O)[C@H](NC(=O)[C@H](Cc1ccccc1)NC(=O)[C@@H](CCCN=C(N)N)NC(=O)[C@@H](N)CCC(N)=O)C(C)(C)S)[C@@H](C)O)C(=O)N[C@@H](Cc1ccc(O)cc1)C(=O)N1CCC[C@H]1C(=O)N[C@H](CS)C(=O)N[C@@H](CC(N)=O)C(=O)NCC(=O)N1CCC[C@H]1C(=O)O"
Response line: 280

Prompt line: Quick one: give measured Kd for "CC(C)C[C@H](NC(=O)CNC(=O)CNC(=O)[C@H](Cc1ccccc1)NC(=O)[C@H](Cc1cnc[nH]1)NC(=O)CNC(=O)[C@@H](NC(=O)[C@@H](NC(=O)[C@H](Cc1ccccc1)NC(=O)[C@H](CCCNC(=N)N)NC(=O)[C@@H](N)CCC(N)=O)C(C)(C)S)[C@@H](C)O)C(=O)N[C@@H](Cc1cccnc1)C(=O)N1CCC[C@H]1C(=O)N[C@@H](CS)C(=O)N[C@@H](CC(N)=O)C(=O)NCC(=O)N1CCC[C@H]1C(=O)O"
Response line: 34000

Prompt line: Quick one: give measured Kd for "Cc1ccc(C[C@H](NC(=O)[C@H](Cc2cnc[nH]2)NC(=O)CNC(=O)[C@@H](NC(=O)[C@@H](NC(=O)[C@H](Cc2ccccc2)NC(=O)[C@H](CCCN=C(N)N)NC(=O)[C@@H](N)CCC(N)=O)C(C)(C)S)[C@@H](C)O)C(=O)NCC(=O)NCC(=O)N[C@@H](CC(C)C)C(=O)N[C@@H](Cc2ccc(O)cc2)C(=O)N2CCC[C@H]2C(=O)N[C@@H](CS)C(=O)N[C@@H](CC(N)=O)C(=O)NCC(=O)N2CCC[C@H]2C(=O)O)cc1"
Response line: 200

###

# measurement target: IgG receptor FcRn large subunit p51 (Homo sapiens)
# assay overview: Binding affinity to human FcRn at pH 7.4 by surface plasmon resonance assay
pKd: −log10 of the molar value. Bridge positions count the residues as written; N and C are the ends. Peptide text beside a SMILES is read from it.
Kind request: treat 5 as inclusive, so pKd at 5 or higher is condition met, anything lower is condition not met.

# molecule, class label
measured = [
    ("CC[C@H](C)[C@@H]1NC(=O)CNC(=O)[C@H](CC(=O)O)NC(=O)[C@H]([C@@H](C)CC)NC(=O)[C@H](Cc2cnc[nH]2)NC(=O)CNC(=O)[C@H](CCC(=O)O)NC(=O)[C@H]([C@@H](C)CC)NC(=O)[C@@H](NC(=O)[C@H](Cc2ccc(O)cc2)NC(=O)[C@H](CO)NC(=O)[C@@H]2CCCN2)CSSC[C@@H](C(=O)N[C@@H](Cc2ccccc2)C(=O)N[C@@H](CC(N)=O)C(=O)N[C@@H](C)C(=O)O)NC(=O)[C@H](Cc2ccc(O)cc2)NC1=O (H-PSYCIEGHIDGIYCFNA-OH; disulfide 4-14)", "condition not met"),
    ("CC(C)C[C@@H]1NC(=O)CNC(=O)CNC(=O)[C@H](Cc2ccccc2)NC(=O)[C@H](Cc2cnc[nH]2)NC(=O)CNC(=O)[C@H]([C@@H](C)O)NC(=O)[C@@H](NC(=O)[C@H](Cc2ccccc2)NC(=O)[C@H](CCCN=C(N)N)NC(=O)[C@@H](N)CCC(N)=O)CSSC[C@@H](C(=O)N[C@@H](CC(N)=O)C(=O)NCC(=O)N2CCC[C@H]2C(=O)O)NC(=O)[C@@H]2CCCN2C(=O)[C@H](Cc2ccc(O)cc2)NC1=O", "condition not met"),
    ("CC(C)C[C@@H](C(=O)N[C@@H](Cc1ccc(O)cc1)C(=O)N1CCC[C@H]1C(=O)N[C@@H](CS)C(=O)O)N(C)C(=O)CN(C)C(=O)CNC(=O)[C@H](Cc1ccccc1)NC(=O)[C@H](CCCCN)NC(=O)CNC(=O)[C@@H](NC(=O)[C@@H](NC(=O)[C@H](Cc1ccccc1)NC(=O)[C@@H](N)CCCN=C(N)N)C(C)(C)S)[C@@H](C)O", "condition met"),
    ("CC(C)C[C@@H](C(=O)N[C@@H](Cc1ccc(O)cc1)C(=O)N1CCC[C@H]1C(=O)N[C@@H](CS)C(=O)O)N(C)C(=O)CN(C)C(=O)CNC(=O)[C@H](Cc1ccccc1)NC(=O)[C@H](CC1CCNCC1)NC(=O)CNC(=O)[C@@H](NC(=O)[C@@H](NC(=O)[C@H](Cc1ccccc1)NC(=O)[C@@H](N)CCCNC(=N)N)C(C)(C)S)[C@@H](C)O", "condition met"),
]

Please examine the following record next.
Prompt line: Given "CC(C)C[C@@H](C(=O)N[C@@H](Cc1ccc(O)cc1)C(=O)N1CCC[C@H]1C(=O)N[C@@H](CS)C(=O)O)N(C)C(=O)CN(C)C(=O)CNC(=O)[C@H](Cc1ccccc1)NC(=O)[C@H](Cc1cccnc1)NC(=O)CNC(=O)[C@@H](NC(=O)[C@@H](NC(=O)[C@H](Cc1ccccc1)NC(=O)[C@@H](N)CCCNC(=N)N)C(C)(C)S)[C@@H](C)O" , state whether its pKd is at least 5.
Response line: condition met
